Quick list: growth per entry.
System: BT-549 breast
Test: NCI-60 one-dose screen, 48 h (100 = growth as untreated, 0 = no growth, -100 = all killed)
Details: 10 µM unless noted
About 83,000 compounds went through this panel and 20% of them were active in at least one assay; those are over-represented in the sample as a whole.

Compound	Experimental system	Unit name	growth
CCOC(=O)CC1C(COC(=O)NC)OC(n2cnc3c(NC(=O)Nc4ccccc4)ncnc32)C1O[Si](C)(C)C(C)(C)C (stereo not given)	BT-549 breast	%	64.5
COc1ccc(S(=O)(=O)n2cc(C3OC(c4cc(OC)c(OC)c(OC)c4)=NN3C(C)=O)c3ccccc32)cc1OC (stereo not given)	BT-549 breast	%	51.8
CN1C(=C2C(=O)OC(C)(C)OC2=O)CCC1C(=O)NCc1ccc(Cl)cc1Cl (stereo not given)	BT-549 breast	%	107
CCOC(=O)Cn1c(C)c(/C=N/NC(=O)c2cc3c(ccc4ccccc43)o2)c2ccccc21	BT-549 breast	%	35.3
COc1cc(C(=O)N2N=C(c3ccc(S(C)(=O)=O)cc3)CC2c2ccco2)cc(OC)c1OC (stereo not given)	BT-549 breast	%	48.5
Cc1nc(/N=C(\N)NC(=O)Nc2ccccc2Cl)sc1C	BT-549 breast	%	69.3
CCc1ccc(Oc2c(-c3ccc(OCCc4cccc(C(F)(F)F)c4)cc3O)n[nH]c2C(F)(F)F)cc1	BT-549 breast	%	86.5
N#Cc1ccc(NC(=O)c2sc3nc4c(cc3c2N)C(=O)CCC4)cc1	BT-549 breast	%	108
CCOC(=O)c1c(C)nc2c(c1N)CC(=O)N2Cc1ccc(F)cc1	BT-549 breast	%	72.5
COc1ccc(C2CC(c3ccc(Nc4nc(Nc5ccc(F)cc5)nc(Nc5ccc(Cl)cc5)n4)cc3)=NN2C(C)=O)cc1 (stereo not given)	BT-549 breast	%	143
CNC(C)[C@H]1CCC2C3CCC4C[C@@H](N(C)C(=O)c5ccccc5)CC[C@]4(C)C3CC[C@@]21C (stereo not given in full)	BT-549 breast	%	31
CCCCOc1ccc(/C=N/NC(N)=S)cc1	BT-549 breast	%	73.6
Cc1nc2ccccc2n1CC1C(=O)NC(=O)NC1=O	BT-549 breast	%	121
O=CN(SSN(C=O)C1CCCCC1)C1CCCCC1	BT-549 breast	%	137
Cc1cc2nc3cc(C)c(N)cc3[n+](-c3ccccc3)c2cc1N	BT-549 breast	%	18.5
C(=N/Nc1ncnc2nc[nH]c12)/c1ccccn1	BT-549 breast	%	54.7
Cc1cc(=O)oc2cc(OC(=O)N3CCN(C)CC3)ccc12	BT-549 breast	%	112
CS(=O)(=O)Nc1cc(-c2ccc3ncnc(Nc4cccc(Cl)c4F)c3c2)cnc1Cl	BT-549 breast	%	17.9
NC(=O)C1(Nc2ccc(Br)cc2)CCCC1	BT-549 breast	%	104
COc1ccc(C2NC(=O)C(C#N)c3c2sc2c(F)cccc32)c(OC)c1 (stereo not given)	BT-549 breast	%	72.1
CCCCCCNC(=O)Oc1ccc(/C(=C(\C)c2ccc(Cl)cc2)c2ccc(OCCN3CCCCC3)cc2)cc1	BT-549 breast	%	64.4
NS(=O)(=O)c1ccc(-n2nc(C(=O)N/N=C\c3ccc(F)cc3)cc2-c2ccc(Br)cc2)cc1	BT-549 breast	%	86.1
CC(C)n1cnc2c(Nc3cccc(Cl)c3)nc(N[C@H]3CCCC[C@@H]3N)nc21	BT-549 breast	%	63
Fc1cc2c(cc1Cl)N(c1ncnc3ccc(-c4cnc5cnccn45)cc13)CC2	BT-549 breast	%	83.7
BrCCCc1n(Cc2ccc3ccccc3c2)c2ccccc2[n+]1Cc1ccc2ccccc2c1	BT-549 breast	%	-73.5
Cc1cccc(OCC(O)CN2CCN(c3ccc(Cl)cc3)CC2)c1 (stereo not given)	BT-549 breast	%	99.6
Cc1ccc(C(=O)NN2C(=O)CSC2c2ccc(Cl)cc2)cn1 (stereo not given)	BT-549 breast	%	192
COc1ccn2c(C(C)=O)cc(C(=O)c3ccc4c(c3)Sc3ccccc3N4)c2c1	BT-549 breast	%	55.6
COc1cc(/C=C/C(=O)/C=C/c2cc(OC)c3c(c2OC)OCO3)c(OC)c2c1OCO2	BT-549 breast	%	31.4
O=C1c2cccc3cccc(c23)C(=O)N1Nc1nc(N2CCOCC2)nc(N2CCN(c3ccccc3)CC2)n1	BT-549 breast	%	37.8
Fc1cc(-c2nnc3n2NC(=Nc2ccc(Cl)cc2)CS3)c(Cl)cc1Cl	BT-549 breast	%	94.7
CCOC(=O)c1cnn2c3ccccc3n(S(=O)(=O)c3ccc(OC)cc3)c12	BT-549 breast	%	17.5
CCOC(=O)c1cn2ncnc(Oc3ccc(NC(=O)NCCN4CCN(C)CC4)c(Cl)c3)c2c1C	BT-549 breast	%	77.8
O=C(CSc1nc2ccccc2[nH]1)Nc1cccc(Cl)c1	BT-549 breast	%	103
Cc1ccc(-c2cnc3sc(C(=O)NCCc4ccccc4)c(C)n23)cc1	BT-549 breast	%	79.5
Cc1cc(=O)oc2cc(OC(=O)CN3CCN(C)CC3)ccc12	BT-549 breast	%	114
CNc1nc2c(s1)C(c1cc(F)ccc1F)CC(=O)N2 (stereo not given)	BT-549 breast	%	80.5
CN(C)CCS(=O)(=O)Nc1cc(-c2ccc3ncc(C#N)c(Nc4ccc(F)c(Cl)c4)c3c2)cnc1Cl	BT-549 breast	%	-60.2
CCCCCCCCCCCCCCCCCCOc1ccccc1CC(=O)OCC[N+](CC)(CC)CC	BT-549 breast	%	76.3
CCOC(=O)c1cn2ncnc(Oc3ccc(NC(=O)NCCN(C)C)c(Cl)c3)c2c1C	BT-549 breast	%	77.8

FYI, the data here is from PubChem BioAssay (NCI).
